# protocol_notes: gradient 5% acetonitrile 3 min, to 50% in 2 min, to 85% in 15 min, held 3 min, 100 µL/min
# condition_info: column: Zorbax Extend-C18 2.1 x 50 mm; eluents: water / acetonitrile, 0.1% formic acid
Answer each item with its documented RP-LC retention time.
The figure you give is taken to be in s; do not add the unit.

Enquiry: Entry CCc1ccc(-c2cn3ccn(-c4cccc(F)c4)c(=O)c3n2)cc1 : reported RP-LC retention time = ?
Return: 895

Enquiry: Entry Cn1cc(-c2cc3n(n2)CCC(=O)N3CCCC(=O)Nc2ccccc2F)c2ccccc21 : reported RP-LC retention time = ?
Return: 844

Enquiry: Entry CCOC(=O)C1=C(C)NC2=C(C(=O)C(C(=O)OC)C(C)C2)C1c1cccc(Cl)c1 (stereo not given) : reported RP-LC retention time = ?
Return: 965

Enquiry: Entry CC(=O)c1cccc(NC(=O)NC(c2ccccc2)c2nnc(-c3ccccc3)o2)c1 (stereo not given) : reported RP-LC retention time = ?
Return: 892

Enquiry: Entry Cc1nnc(-c2ccc(S(=O)(=O)N3CCOCC3)o2)o1 : reported RP-LC retention time = ?
Return: 664

Enquiry: Entry COc1ccc(Nc2c(-c3ccc4c(c3)OCO4)nc3cnccn23)cc1OC : reported RP-LC retention time = ?
Return: 709

Enquiry: Entry O=C(c1ccc(Br)cc1)N1CCC(n2c(-c3ccoc3)nc3cccnc32)C1 (stereo not given) : reported RP-LC retention time = ?
Return: 783

Enquiry: Entry c1ccc(Sc2ncnc3ccccc23)cc1 : reported RP-LC retention time = ?
Return: 1050

Enquiry: Entry Cc1nnc(N2CCCC(C(=O)NCCc3ccco3)C2)c2nn(-c3ccc(Cl)cc3)c(C)c12 (stereo not given) : reported RP-LC retention time = ?
Return: 743

Enquiry: Entry CC(C)Cn1cc(CCNC(=O)c2cccc(C(F)(F)F)c2)c2cccnc21 : reported RP-LC retention time = ?
Return: 940

Enquiry: Entry O=C(O)CNS(=O)(=O)c1ccc(Cl)c(-c2nnc(-c3ccccc3)o2)c1 : reported RP-LC retention time = ?
Return: 766

Enquiry: Entry O=C(Cc1csc(NC(=O)c2ccsc2)n1)Nc1nc2c(s1)CCCC2 : reported RP-LC retention time = ?
Return: 874

Enquiry: Entry Cc1nccn1Cc1noc(-c2cccc(F)c2)n1 : reported RP-LC retention time = ?
Return: 611

Enquiry: Entry O=C1NC2(CCN(C(=O)Nc3ccc(Cl)cc3)CC2)N=C1c1cccc(F)c1 : reported RP-LC retention time = ?
Return: 872

Enquiry: Entry Cc1ccc2c(C(=O)NCCc3cccs3)cc(NC(=O)C3CCC3)cc2n1 : reported RP-LC retention time = ?
Return: 660

Enquiry: Entry Cc1ccc(CNc2ccc3nnc(C4CCC4)n3n2)o1 : reported RP-LC retention time = ?
Return: 883

Enquiry: Entry Cc1nc(-n2cccc2)sc1C(=O)N1CCN(C(=O)c2ccco2)CC1 : reported RP-LC retention time = ?
Return: 713

Enquiry: Entry O=C(NC1CCCCC1)N1CCC(c2noc(-c3ccncc3)n2)C1 (stereo not given) : reported RP-LC retention time = ?
Return: 727

Enquiry: Entry Cc1ccc(CNC(=O)Cn2c(C)cc(-c3nnc(-c4ccc(F)cc4)o3)c2C)cc1 : reported RP-LC retention time = ?
Return: 982

Enquiry: Entry Cc1nc(NC(=O)Cn2nc3c(cc2=O)CCCCC3)sc1C : reported RP-LC retention time = ?
Return: 786

Enquiry: Entry COc1ccc(-c2cn3c(CC(=O)NCc4cccs4)csc3n2)cc1OC : reported RP-LC retention time = ?
Return: 678

Enquiry: Entry O=C(CN1CCc2ccccc2C1C(=O)N1CCCC1)NCc1cccc(C(F)(F)F)c1 (stereo not given) : reported RP-LC retention time = ?
Return: 838

Enquiry: Entry Cc1cc(C)c2c(n1)SCCN2C(=O)CCC(=O)NCc1ccc(Cl)cc1 : reported RP-LC retention time = ?
Return: 696

Enquiry: Entry CCOc1ccc(NC(=O)c2cc(S(=O)(=O)N3CCCC(C)C3)cn2C)cc1 (stereo not given) : reported RP-LC retention time = ?
Return: 1080

Enquiry: Entry O=C(Nc1ccc2c(c1)OCO2)C(=O)NC1CC1 : reported RP-LC retention time = ?
Return: 677

Enquiry: Entry O=c1c2oc3ccccc3c2ncn1Cc1nc(-c2ccc(F)cc2)no1 : reported RP-LC retention time = ?
Return: 945

Enquiry: Entry Cc1nc([N+](=O)[O-])c(Sc2nc3ccccc3[nH]2)n1Cc1ccccc1 : reported RP-LC retention time = ?
Return: 702

Enquiry: Entry CCc1onc(C)c1C1CCCN1C(=O)Nc1ccc(C)cc1 (stereo not given) : reported RP-LC retention time = ?
Return: 844

Enquiry: Entry Cc1ccc(NC(=O)Cn2ncc3c(c2=O)N(C2CC2)C(=O)CS3)cc1C : reported RP-LC retention time = ?
Return: 732

Enquiry: Entry O=C(NCc1cccc(Br)c1)C1CCN(c2nnc(-c3ccccc3)o2)CC1 : reported RP-LC retention time = ?
Return: 885

Enquiry: Entry Cc1ccc(N2CCC(NC(=O)NC(C)(C)C)C2=O)cc1C (stereo not given) : reported RP-LC retention time = ?
Return: 803

Enquiry: Entry O=S(=O)(c1cccc(C(F)(F)F)c1)N1CCOCC1 : reported RP-LC retention time = ?
Return: 794

Enquiry: Entry Cc1c(CNCc2cccnc2)c(C(=O)O)c(C)n1Cc1cccc(F)c1 : reported RP-LC retention time = ?
Return: 618

Enquiry: Entry CCC(=O)N1CCc2cc(C)c(S(=O)(=O)NC(C)C)cc21 : reported RP-LC retention time = ?
Return: 796

Enquiry: Entry COc1ccccc1OCC(O)Cn1c(C2CC(=O)N(c3ccccc3)C2)nc2ccccc21 (stereo not given) : reported RP-LC retention time = ?
Return: 736

Enquiry: Entry CNC(=O)[C@H]1O[C@@H](n2cnc3c(N)ncnc32)C(O)[C@H]1O (stereo not given in full) : reported RP-LC retention time = ?
Return: 621

Enquiry: Entry O=C(Cc1ccccc1)NC1CCN(c2cc(-c3ccc(Cl)cc3)[nH]n2)C1 (stereo not given) : reported RP-LC retention time = ?
Return: 764

Enquiry: Entry CCOc1ccccc1C(=O)Nc1ccc(Cl)c(C(F)(F)F)c1 : reported RP-LC retention time = ?
Return: 1230

Enquiry: Entry CCN(CC)C(=O)c1ccc(C2=CC3(CCNCC3)Oc3cccc(O)c32)cc1 : reported RP-LC retention time = ?
Return: 725

Enquiry: Entry CSc1cccc(NC(=O)NC2CCN(c3cc(C)cc(C)c3)C2=O)c1 (stereo not given) : reported RP-LC retention time = ?
Return: 929

Data provenance: the METLIN SMRT retention time set (Domingo-Almenara et al. 2019)
